system: NCI-H1395; test: cells; assay type: functional, cell-based, Homo sapiens; settings: Homo sapiens, NCI-H1395;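 note: cell viability assay read-out quantifying reduced proliferation of human NCI-H1395 cells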
Description: SANGER: Inhibition of human NCI-H1395 cell growth in a cell viability assay.
pIC50: −log10 of the molar value.
Can you tell me pIC50 for the items I'm about to list?

Example entries and their recorded answers appear below.
# COMPOUND, pIC50
records = [
    ("O=C1N=C(NCc2cccs2)S/C1=C\\c1ccc2ncccc2c1", "< 5.30"),
    ("Cc1ccc(Nc2nccc(N(C)c3ccc4c(C)n(C)nc4c3)n2)cc1S(N)(=O)=O [PAZOPANIB]", "< 5.10"),
    ("O=C(/C=C/c1ccccc1)NC(NC(=S)Nc1cccc2cccnc12)C(Cl)(Cl)Cl (stereo unspecified) [SALUBRINAL]", "< 4.80"),
    ("Cn1cc(C2=C(c3ccc(Cl)cc3Cl)C(=O)NC2=O)c2ccccc21 [SB-216763]", "< 5.00"),
    ("CN(c1ncccc1CNc1nc(Nc2ccc3c(c2)CC(=O)N3)ncc1C(F)(F)F)S(C)(=O)=O [PF-00562271]", "< 5.59"),
]

Now take the following compound into account.
For CCC1=C[C@@H]2CN(C1)Cc1c([nH]c3ccccc13)[C@@](C(=O)OC)(c1cc3c(cc1OC)N(C)[C@H]1[C@@](O)(C(=O)OC)[C@H](OC(C)=O)[C@]4(CC)C=CCN5CC[C@]31[C@@H]54)C2 [VINORELBINE] the compound record lists pIC50 as 7.27

---

test system: Ca-Ski; assay: cells; type: functional, cell-based; details: Homo sapiens;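 note: cell viability assay measuring inhibition of Ca-Ski cell growth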
Description: SANGER: Inhibition of human Ca-Ski cell growth in a cell viability assay.
EXPERIMENTAL READOUT: pIC50
One number for each entry, as −log10 of the molar value.

Example entries and their recorded answers appear below.
# COMPOUND, pIC50
records = [
    ("CCC1=C[C@@H]2CN(C1)Cc1c([nH]c3ccccc13)[C@@](C(=O)OC)(c1cc3c(cc1OC)N(C)[C@H]1[C@@](O)(C(=O)OC)[C@H](OC(C)=O)[C@]4(CC)C=CCN5CC[C@]31[C@@H]54)C2 [VINORELBINE]", 7.72),
    ("Cc1cc([C@@H](C)Nc2ccccc2C(=O)O)c2nc(N3CCOCC3)cc(=O)n2c1 [AZD-6482]", 5.71),
]

For C=CCNC1=C2C[C@@H](C)C[C@H](OC)[C@H](O)[C@@H](C)/C=C(\C)[C@H](OC(N)=O)[C@@H](OC)/C=C\C=C(/C)C(=O)NC(=CC1=O)C2=O [TANESPIMYCIN] the compound record lists pIC50 as 6.57

---

system: HT55; assay: cells; type: functional, cell-based, Homo sapiens; conditions: Homo sapiens, HT55;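 note: cell viability readout measuring growth inhibition of human HT55 cells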
Description: SANGER: Inhibition of human HT55 cell growth in a cell viability assay.
pIC50: −log10 of the molar value.
Can you tell me pIC50 for the items I'm about to list?

# COMPOUND, pIC50
measured = [
    ("CC(=O)O[C@@]12CO[C@@H]1C[C@H](O)[C@@]1(C)C(=O)[C@H](O)C3=C(C)[C@@H](OC(=O)[C@H](O)[C@@H](NC(=O)OC(C)(C)C)c4ccccc4)C[C@@](O)([C@@H](OC(=O)c4ccccc4)[C@H]21)C3(C)C [DOCETAXEL]", "< 8.00"),
    ("CN(C)C/C=C/C(=O)Nc1cc2c(Nc3ccc(F)c(Cl)c3)ncnc2cc1O[C@H]1CCOC1 [AFATINIB]", "< 6.30"),
    ("COc1cc([C@@H]2c3cc4c(cc3[C@@H](O[C@@H]3O[C@@H]5CO[C@@H](C)O[C@H]5[C@H](O)[C@H]3O)[C@H]3COC(=O)[C@H]23)OCO4)cc(OC)c1O [ETOPOSIDE]", "< 4.80"),
    ("Nc1ccn([C@@H]2O[C@H](CO)[C@@H](O)[C@@H]2O)c(=O)n1 [CYTARABINE]", "< 5.70"),
    ("C=CCNC1=C2C[C@@H](C)C[C@H](OC)[C@H](O)[C@@H](C)/C=C(\\C)[C@H](OC(N)=O)[C@@H](OC)/C=C\\C=C(/C)C(=O)NC(=CC1=O)C2=O [TANESPIMYCIN]", "< 6.00"),
]

Parameter requested: pIC50. Apply to each item below.
1. C=CCc1cccc(/C=N/NC(=O)CN2CCN(Cc3ccccc3)CC2)c1O [PAC-1]
2. COc1ccc(C2=N[C@@H](c3ccc(Cl)cc3)[C@@H](c3ccc(Cl)cc3)N2C(=O)N2CCNC(=O)C2)c(OC(C)C)c1 [NUTLIN-3]
3. CN(Cc1cnc2nc(N)nc(N)c2n1)c1ccc(C(=O)N[C@@H](CCC(=O)O)C(=O)O)cc1 [METHOTREXATE]

["< 5.59", "< 5.10", "< 6.70"]

---

Can you tell me IC50 for the items I'm about to list?
test system: SBC-5; assay: cells; assay type: functional, cell-based, Homo sapiens; details: Homo sapiens, SBC-5;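 note: cell viability assay read-out, IC50 is the concentration that inhibits growth of the cells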
Description: SANGER: Inhibition of human SBC-5 cell growth in a cell viability assay.
One number for each entry, in µM.

Example entries and their recorded answers appear below.
# COMPOUND, EXPERIMENTAL READOUT, RESULT NUMBER
rows = [
    ("COC(=O)CNC(=O)C(=O)OC", "IC50", 1390),
    ("CC(=O)O[C@@]12CO[C@@H]1C[C@H](O)[C@@]1(C)C(=O)[C@H](O)C3=C(C)[C@@H](OC(=O)[C@H](O)[C@@H](NC(=O)OC(C)(C)C)c4ccccc4)C[C@@](O)([C@@H](OC(=O)c4ccccc4)[C@H]21)C3(C)C [DOCETAXEL]", "IC50", 0.00187),
    ("COc1ccc(-c2ccc3c(N4CCOC[C@@H]4C)nc(N4CCOC[C@@H]4C)nc3n2)cc1CO [AZD-8055]", "IC50", 1.55),
    ("COc1cc([C@@H]2c3cc4c(cc3[C@@H](O[C@@H]3O[C@@H]5CO[C@@H](C)O[C@H]5[C@H](O)[C@H]3O)[C@H]3COC(=O)[C@H]23)OCO4)cc(OC)c1O [ETOPOSIDE]", "IC50", 0.303),
]

Now take the following compound into account.
For CCC1=C[C@@H]2CN(C1)Cc1c([nH]c3ccccc13)[C@@](C(=O)OC)(c1cc3c(cc1OC)N(C)[C@H]1[C@@](O)(C(=O)OC)[C@H](OC(C)=O)[C@]4(CC)C=CCN5CC[C@]31[C@@H]54)C2 [VINORELBINE] the compound record lists IC50 as 0.00208

---

test system: RPMI-8866; assay: cells; type: functional, cell-based; conditions: Homo sapiens
Description: SANGER: Inhibition of human RPMI-8866 cell growth in a cell viability assay.
Can you tell me IC50 for the items I'm about to list?

# MOLECULE, SYSTEM UNDER TEST, IC50
records = [
    ("C=CCNC1=C2C[C@@H](C)C[C@H](OC)[C@H](O)[C@@H](C)/C=C(\\C)[C@H](OC(N)=O)[C@@H](OC)/C=C\\C=C(/C)C(=O)NC(=CC1=O)C2=O", "RPMI-8866", "> 1 µM"),
    ("C=C1C(=O)O[C@@H]2C3O[C@]3(C)CC/C=C(\\C)CC[C@@H]12 (some centres not stated)", "RPMI-8866", "> 5 µM"),
    ("Cc1ccc(Nc2nccc(N(C)c3ccc4c(C)n(C)nc4c3)n2)cc1S(N)(=O)=O", "RPMI-8866", "> 8 µM"),
    ("CNC(=O)c1cc(Oc2ccc(NC(=O)Nc3ccc(Cl)c(C(F)(F)F)c3)cc2)ccn1", "RPMI-8866", "> 4 µM"),
    ("CN1CCN(CCOc2cc(OC3CCOCC3)c3c(Nc4c(Cl)ccc5c4OCO5)ncnc3c2)CC1", "RPMI-8866", "> 2 µM"),
    ("COc1cc([C@@H]2c3cc4c(cc3[C@@H](O[C@@H]3O[C@@H]5CO[C@@H](C)O[C@H]5[C@H](O)[C@H]3O)[C@H]3COC(=O)[C@H]23)OCO4)cc(OC)c1O [ETOPOSIDE]", "RPMI-8866", "4.65 µM"),
]

For COc1cc(F)c(F)c(Nc2ccc(I)cc2F)c1NS(=O)(=O)C1(CC(O)CO)CC1 (configuration not stated) the molecule record lists IC50 as > 5 µM

---

system: HCE-T; assay: cells; format: functional, cell-based, Homo sapiens; conditions: Homo sapiens, HCE-T;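 note: cell viability assay read-out, reporting inhibition of HCE-T cell growth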
Description: SANGER: Inhibition of human HCE-T cell growth in a cell viability assay.
EXPERIMENTAL READOUT: IC50

Parameter requested: IC50. Apply to each item below.
1. O=C(/C=C/c1ccccc1)NC(NC(=S)Nc1cccc2cccnc12)C(Cl)(Cl)Cl (centres undefined)
2. CN1CCN(CCOc2cc(OC3CCOCC3)c3c(Nc4c(Cl)ccc5c4OCO5)ncnc3c2)CC1
3. CNC(=O)c1cc(Oc2ccc(NC(=O)Nc3ccc(Cl)c(C(F)(F)F)c3)cc2)ccn1
4. COC(=O)CNC(=O)C(=O)OC
5. O=C(c1cc(Cc2n[nH]c(=O)c3ccccc23)ccc1F)N1CCN(C(=O)C2CC2)CC1

1: > 16 µM; 2: > 2 µM; 3: > 4 µM; 4: 3440 µM; 5: > 5 µM

Parameter requested: IC50. Apply to each item below.
1. CN(Cc1cnc2nc(N)nc(N)c2n1)c1ccc(C(=O)N[C@@H](CCC(=O)O)C(=O)O)cc1 [METHOTREXATE]
2. Cn1cc(C2=C(c3ccc(Cl)cc3Cl)C(=O)NC2=O)c2ccccc21
3. CCC(=O)N1CCN(c2ccc(-n3c(=O)ccc4cnc5ccc(-c6cnc7ccccc7c6)cc5c43)cc2C(F)(F)F)CC1

1: > 0.2 µM; 2: > 10 µM; 3: 0.109 µM

For CCOc1nc(NC(=O)Cc2cc(OC)ccc2OC)cc(N)c1C#N the molecule record lists IC50 as > 10 µM

Source of measurements: ChEMBL document CHEMBL1201861
